targetUnderTest: metadherin (MTDH) (Homo sapiens)
Sequence (Q86UE4 1-582): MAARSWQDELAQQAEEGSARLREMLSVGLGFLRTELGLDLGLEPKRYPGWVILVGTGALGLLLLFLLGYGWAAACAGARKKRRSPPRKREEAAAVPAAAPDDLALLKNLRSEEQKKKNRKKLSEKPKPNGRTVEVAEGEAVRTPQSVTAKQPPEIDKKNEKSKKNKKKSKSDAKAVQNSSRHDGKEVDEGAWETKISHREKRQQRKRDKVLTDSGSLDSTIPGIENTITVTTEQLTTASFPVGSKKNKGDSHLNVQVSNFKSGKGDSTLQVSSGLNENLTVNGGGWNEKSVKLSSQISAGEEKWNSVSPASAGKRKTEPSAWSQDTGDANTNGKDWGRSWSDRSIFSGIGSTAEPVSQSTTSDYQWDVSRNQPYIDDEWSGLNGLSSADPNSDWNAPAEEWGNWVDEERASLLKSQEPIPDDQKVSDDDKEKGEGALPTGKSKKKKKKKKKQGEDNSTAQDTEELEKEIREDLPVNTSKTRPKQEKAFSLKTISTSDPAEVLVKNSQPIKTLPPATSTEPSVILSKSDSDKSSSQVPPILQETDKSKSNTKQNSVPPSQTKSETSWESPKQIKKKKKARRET
assayProtocol: biolayer interferometry
Format: binding
readout: pKd
// field semantics: pKd = negative decimal log of concentration (mol/L)

Entry CC(=O)Oc1cc(OC(C)=O)c2c(c1)O[C@H](c1cc(OC(C)=O)c(OC(C)=O)c(OC(C)=O)c1)[C@H](OC(=O)c1cc(OC(C)=O)c(OC(C)=O)c(OC(C)=O)c1)C2 [ProEGCG] needs its pKd filled in; supply it. 3.29

---

targetUnderTest: PX domain containing serine/threonine kinase-like (PXK) (Homo sapiens, UniProt Q7Z7A4)
Sequence (Q7Z7A4 whole entry, the tested form may be a part): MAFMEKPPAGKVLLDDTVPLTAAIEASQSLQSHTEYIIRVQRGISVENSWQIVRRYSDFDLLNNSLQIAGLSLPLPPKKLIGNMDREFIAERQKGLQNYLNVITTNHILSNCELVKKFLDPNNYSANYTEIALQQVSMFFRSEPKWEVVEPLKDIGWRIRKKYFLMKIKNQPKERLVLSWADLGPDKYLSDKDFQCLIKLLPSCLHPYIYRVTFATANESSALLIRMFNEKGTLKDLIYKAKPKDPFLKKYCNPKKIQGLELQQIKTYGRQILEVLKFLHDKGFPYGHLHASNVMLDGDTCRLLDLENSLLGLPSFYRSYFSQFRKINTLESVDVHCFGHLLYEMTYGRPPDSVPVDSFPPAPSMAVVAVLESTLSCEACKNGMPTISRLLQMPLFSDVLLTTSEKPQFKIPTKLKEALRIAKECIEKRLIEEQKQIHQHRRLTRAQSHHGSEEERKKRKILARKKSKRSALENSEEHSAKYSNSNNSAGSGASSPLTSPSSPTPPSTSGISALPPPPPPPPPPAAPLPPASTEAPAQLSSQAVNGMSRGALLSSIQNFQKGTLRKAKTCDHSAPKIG
assayProtocol: biolayer interferometry
Format: binding
readout: pKd
// field semantics: pKd = negative decimal log of concentration (mol/L)

Entry CC(=O)Oc1cc(OC(C)=O)c2c(c1)O[C@H](c1cc(OC(C)=O)c(OC(C)=O)c(OC(C)=O)c1)[C@H](OC(=O)c1cc(OC(C)=O)c(OC(C)=O)c(OC(C)=O)c1)C2 [ProEGCG] needs its pKd filled in; supply it. 2.77
